All values here come from PubChem BioAssay.

- experiment description: reversal of MRP1-mediated doxorubicin resistance, pilot screen, H69AR cells, doxorubicin co-treatment (AID 601)
- recorded conditions: H69AR cells + 2 uM doxorubicin, CellTiter-Glo, 72 h; at 10 µM; stronger effect = higher value

molecule | differential viability (reversal) [%]
Cc1ccc(S(=O)(=O)Cc2ccc(C(=O)NCCCN3CCN(C)CC3)o2)cc1 | 11
NC(=O)CCS(=O)(=O)CCN1CCCCC1 | -0.51
CCn1c(C)c(CCC(=O)O)c(=O)n2nc(-c3ccccc3OC)cc12 | -1.22
Cc1ccc(Cn2nnc3c(=O)[nH]c(C4CCN(C(=O)c5cccs5)CC4)nc32)cc1 | 2.21
CCN1CCN(CCCNC(=O)c2cn(CCOC)c(=O)c3c2c2ccccc2n3C)CC1 | 6.88
O=C(c1cnsn1)N1CCN(c2ccccn2)CC1 | 10.7
O=c1c2c(nc3nc(CCc4ccccc4)[nH]n13)CCC2 | 14
CC1C(O)=C(c2nc3ccccc3[nH]2)C(=N)N1c1ccccc1 (stereo not drawn) | -39
O=C1CC2CS(=O)(=O)CC2N1c1ccc(Oc2ccccc2)cc1 (stereo not drawn) | -2.44
CCOc1ccccc1C(=O)NCCC(=O)O | 1.32
CCCC(NC(=O)c1ccccc1)c1nc2ccccc2n1Cc1ccc(C(=O)OC)o1 (stereo not drawn) | 4.1
COc1ccc(N2CCN(CCCNC(=O)C3(S(=O)(=O)c4ccc(Cl)cc4)CC3)CC2)cc1 | -13.1
CCCn1c(=O)c2ccccc2n2c(SCc3cc(=O)n4ccsc4n3)nnc12 | 14.6
COc1ccc(C2/C(=C(/O)c3ccccc3)C(=O)C(=O)N2C)cc1 (stereo not drawn) | 3
CCN(CCNC(=O)CS(=O)(=O)Cc1nc(-c2cccc(OC)c2)oc1C)c1ccccc1 | -10.6
CC(C(=O)N1CCCCC1)n1ncn2cccc2c1=O (stereo not drawn) | 17.3
Cc1ccc(C(=O)Nc2nc3c(s2)CCCC3)o1 | -5.85
Cc1cc(C(=O)Nc2ccccc2C#N)n(-c2ccccc2)n1 | -3.06
CSc1nc(NC(C)(C)C)nc(Oc2ccc(=O)[nH]n2)n1 | 0.405
COc1cccc(C2=Nn3c(nnc3-c3ccccc3O)SC2)c1 | -18.5
O=C(O)C1CC(=O)N(c2ccc(Br)cc2)C1 (stereo not drawn) | 4.02
COc1ccc(OC)c(C(=O)COC(=O)c2cc(C)oc2C)c1 | 4.87
CCOC(=O)Cc1nn2c(=O)cc(C)nc2s1 | 2.55

###

- experiment description: HUVEC growth inhibition – cell-based, human, primary screen (AID 575);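 note: 100% = median of untreated cell wells with 0.1% DMSO on each plate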
- recorded conditions: HUVEC proliferation, CellTiter-Glo luminescence, 72 h; at 10 µM; stronger effect = lower value
Measured viability by item

molecule | unit abbrev | viability
CCCCN(Cc1cc2cc(OC)ccc2[nH]c1=O)C(=O)COc1ccccc1 | % | 108
O=C(NCC1COc2ccccc2O1)c1ccccc1 (stereo not drawn) | % | 113
O=C(CN1C(=O)CSC1=O)Nc1ccc(N2CCOCC2)cc1 | % | 88.1
Cc1nn(C)cc1NC(=O)CCSc1nc(-c2ccco2)cc(C(F)(F)F)n1 | % | 102
Cc1ccc(C(=O)NC2CC3CCCC(C2)N3C(=O)NC2CCCCC2)cc1 (stereo not drawn) | % | 111
O=S(=O)(c1cc(Cl)ccc1Br)N1CCOCC1 | % | 103
Cc1cccc(C2c3c(n(C)c(=O)n(C)c3=O)N=C3c4ccccc4C(=O)C32)c1 (stereo not drawn) | % | 43.8
COc1cccc(C(=O)OCn2nnc3ccccc3c2=O)c1 | % | 108
CN1C(=O)C2(NCCc3c2[nH]c2ccccc32)c2ccccc21 (stereo not drawn) | % | 86.8
CCc1nnc2sc(-c3cc(-c4ccccc4)nc4ccccc34)nn12 | % | 75.5
CCSc1nnc(NC(=O)c2ccc(C)o2)s1 | % | 105
CCC1Oc2ccccc2N(CC(=O)Nc2ccc(OC)cc2OC)C1=O (stereo not drawn) | % | 106
CCCCc1noc2c1/C(=N\O)CC(c1ccccc1)C2 (stereo not drawn) | % | 108
O=C1NC(Cc2c[nH]c3ccccc23)C(=O)N1CCOc1ccccc1 (stereo not drawn) | % | 73.2
COCC(=O)Nc1sc2c(c1C(=O)OC)C(C(=O)OC)CC2 (stereo not drawn) | % | 84.6
CCOc1cc(C(=O)N2CCN=C2SC)cc(OCC)c1OCC | % | 87.4
CC(=O)N(C)C1(c2nnnn2CCOC(=O)Nc2ccc(Cl)cc2)CCCCC1 | % | 98.1
CCN(Cc1nc2ccccc2c(=O)[nH]1)Cc1cc(=O)oc2cc(C)c(C)cc12 | % | 63
C=CCN1C(=O)C2(c3ccccc31)C1CCCC=C1C(C#N)=C(N)C2(C#N)C#N (stereo not drawn) | % | 62.7
CCN1CCN(C(=O)c2ccc3c(=O)n(C4CCCC4)c(=S)[nH]c3c2)CC1 | % | 82.9
Cc1cccc(N2CCN(S(=O)(=O)c3ccc4c(c3)CCC(=O)N4)CC2C)c1 (stereo not drawn) | % | 84.7
COc1ccccc1Nc1nc(N)nc(CN2CCN(c3ccccc3F)CC2)n1 | % | 98.9
O=C(Nc1nccs1)c1ccc(COc2ccccc2Br)o1 | % | 50.3
